# Test system: MS2 coat protein
# assayName: apparent KD of MS2 coat protein; designed switch direction (-1 OFF switch, 1 ON switch): 1; higher = weaker reporter binding
# testContext: Eterna round: R95; input ligand: none
apparent KD of MS2 coat protein values for the sequences below.
State the answer as a number, implicitly in nM.

Previously resolved entries follow.
biosequence	apparent KD of MS2 coat protein, nM
UCAACUUCUUUUAGUGUGUUGCCAGUUUUACAUGAGGAUCACCCAUGUUAAGUAUUGUGGUAUUUUGUUCGUCUUAA [JR_SHM208A_Sub073] (puzzle: Sensor for hsa-mir-208a)	16.3
AUCUCUGUGCCGCAGGAUAUACCAACGGCUACAUGAGGAUCACCCAUGUCAUACCGUCGAAAAUGGUAGAAGGGUGUGCACGAGC [Leesmala] (puzzle: Same State 2)	61.3
AAAGUACAUGAGGAUCACCCAUGUAAAAGACUCACAGGAUAUGCUUCUUGUGUACAAGCUGCAGAAGGGUGAAAAG [Oraes] (puzzle: Same State 1)	107
GGAGCCGGUACUGAGGAUAUUCAUCUUAAAACAUGAGGAUCACCCAUGUAGGCCAGAAGGCCUUGGGAGAAGGCAGAUCGGCUCC [Biseusra - 7] (puzzle: Same State 2)	66

Next:
Input line: Fill blank: measured apparent KD of MS2 coat protein of the sequence UCUUGGUUUUUGCUCGUUUUUUGUGUUGAACAUGAGGAUCACCCAUGUAUUGUACGGUCCGAUUUAGUAGUGGUCCG [JMF 18] (puzzle: Sensor for hsa-mir-208a) is ____.
Output line: 26.9
